Please provide measured TGI for the entries that follow.
- Tested on: NCI-H522 lung
- assayOverview: NCI tumour cell line growth inhibition, 48 h
Response body: numeric value in µM, unit text excluded.

Give NCI-H522 lung TGI for the following compound: COc1ccc(/C=N/C2=NNC(C)(c3ccccc3O)N2C(Cc2c[nH]c3ccccc23)C(=O)O)cc1 (configuration not stated) 10

Given CCCCCCCCCc1cc(=O)c2c(O)cc(O)cc2o1 , report its TGI on NCI-H522 lung. 31.5

Give the observed TGI of COc1ccccc1NC(=O)C1=C(C)NC(C)=C(C(=O)Nc2ccccc2OC)C1c1ccc(C2C(C(=O)Nc3ccccc3OC)=C(C)NC(C)=C2C(=O)Nc2ccccc2OC)cc1 for NCI-H522 lung. 3.52

Report the value of TGI obtained on NCI-H522 lung for CCOC(=O)c1cccc(N=Nc2ncc(/C=C/C(=O)OC)[nH]2)c1 . 47.2

Ref: PubChem BioAssay (NCI)
